# study system: SARS-CoV-2 NSP3 macrodomain (Mac1), P43 crystal form (Severe acute respiratory syndrome coronavirus 2, UniProt P0DTD1)
# Format: binding
# experimental context: crystal soak 10 mM; DMSO background map
quantity kind: Hit (PanDDA run, DMSO background map)

In [3]: df
Out[3]:
                                   compound  recorded_measurement
0  O=C(O)C(F)(F)F.OC[C@H](Cc1ccc(O)cc1)Nc1ncnc2[nH]ccc12                  TRUE
1  CC(O)C1CCCN1c1ncnc2[nH]ccc12 (stereo not drawn)                  TRUE
2  CC1CCCC(O)(CNc2ncnc3[nH]ccc23)C1 (stereo not drawn)                  TRUE
3  OC1(CNc2ncnc3[nH]ccc23)CCCOC1 (stereo not drawn)                  TRUE
4       OC1(CNc2ncnc3[nH]ccc23)CCC(F)(F)CC1                  TRUE
5  C[C@H]1CC[C@H](CO)N(c2ncnc3[nH]ccc23)C1 (racemic)                  TRUE
6       CC1(C)CCC(O)(CNc2ncnc3[nH]ccc23)CC1                  TRUE
7  C[C@@H]1CCN(c2ncnc3[nH]ccc23)[C@H](CO)C1 (racemic)                  TRUE

Let us move to another entry and its Hit (PanDDA run, DMSO background map).
Fill in the blank: the reported Hit (PanDDA run, DMSO background map) of OC1(CNc2ncnc3[nH]ccc23)CCCC(C(F)(F)F)C1 (stereo not drawn) is ____. TRUE

----------
# study system: SARS-CoV-2 NSP3 macrodomain (Mac1) (Severe acute respiratory syndrome coronavirus 2)
# experiment description: biochemical
# Type: binding
# experimental context: preliminary screen, compound at 200 μM, mean of 3-4 technical replicates; read-out: % competition in HTRF assay
Collected inhibition at 200 µM values appear next to each entry.
Form entry: value (%) — number only.

Before answering, review these 6 worked examples.
>>> df
                                   compound         quantity_kind  recorded_measurement
0          Cc1sc2ncnc(Sc3ccccc3C(=O)O)c2c1C  inhibition at 200 µM                    24
1  O=C(O)C(F)(F)F.OC1([C@H]2CCCN2c2ncnc3[nH]ccc23)Cc2ccccc2C1  inhibition at 200 µM                   100
2        O=C(Nc1ccsc1C(=O)O)c1ccc2c(c1)OCO2  inhibition at 200 µM                    29
3  CCC(O)[C@H]1CCCN1c1ncnc2[nH]ccc12 (stereo partly shown)  inhibition at 200 µM                    87
4  O=C(O)C(F)(F)F.OCC1(Nc2ncnc3[nH]ccc23)CCCC1  inhibition at 200 µM                    85
5  O=C(O)C(F)(F)F.OCC1(Nc2ncnc3[nH]ccc23)CCC1  inhibition at 200 µM                    87

Fill in the blank: the reported inhibition at 200 µM of O=C(O)C(c1ccccc1)n1sc2ccccc2c1=O (stereo not shown) is ____. 21

Fill in the blank: the reported inhibition at 200 µM of OC[C@@H]1C[C@@H]2CCC[C@@H]2N1c1ncnc2[nH]ccc12 is ____. 92

Fill in the blank: the reported inhibition at 200 µM of O[C@H]1CC[C@@H]2CCN(c3ncnc4[nH]ccc34)[C@@H]21 is ____. 93

Fill in the blank: the reported inhibition at 200 µM of CC(C)n1nnnc1SCc1c(C(=O)O)sc2cccc(F)c12 is ____. 41

----------
# study system: SARS-CoV-2 NSP3 macrodomain (Mac1), P43 crystal form (Severe acute respiratory syndrome coronavirus 2)
# Format: binding
# experimental context: soak concentration 10 mM; DMSO background map
Collected PanDDA run, DMSO background map: 1-BDC values appear next to each entry.
// keep it numeric: no unit symbol after the value

>>> df
                                   molecule  recorded_measurement
0  NC(=O)C1(O)CCN(c2ncnc3[nH]ccc23)C1 (centres unmarked)                  0.22
1  OCC1CC2(CCOCC2)CN1c1ncnc2[nH]ccc12 (centres unmarked)                  0.21

Fill in the blank: the reported PanDDA run, DMSO background map: 1-BDC of CC1(C)C[C@@H](CO)N(c2ncnc3[nH]ccc23)C1.O=C(O)C(F)(F)F is ____. 0.33

Fill in the blank: the reported PanDDA run, DMSO background map: 1-BDC of O[C@@H]1CN(c2ncnc3[nH]ccc23)C[C@H]1F is ____. 0.2

Fill in the blank: the reported PanDDA run, DMSO background map: 1-BDC of O=C(O)C(F)(F)F.OC[C@H]1CC2(CN1c1ncnc3[nH]ccc13)OCCO2 is ____. 0.21

----------
# study system: SARS-CoV-2 NSP3 macrodomain (Mac1), P43 crystal form (Severe acute respiratory syndrome coronavirus 2, UniProt P0DTD1)
# Type: binding
Decision: Refined ligand occupancy (%) compared against 40%; not below it gives criterion met, below it gives criterion not met.

Illustrative cases are given below, each with its answer.
>>> df
                                   compound              label
0  OC1(CNc2ncnc3[nH]ccc23)CC2CCC1CC2 (stereo not shown) [AVI-4320]  criterion not met
1  O=S1(=O)CCCC(O)(CNc2ncnc3[nH]ccc23)C1 (stereo not shown) [AVI-4317]      criterion met
2  O[C@H]1CC[C@H]2CCN(c3ncnc4[nH]ccc34)[C@H]21 [AVI-5997]      criterion met
3  C[C@@H]1CCN(c2ncnc3[nH]ccc23)[C@H](CO)C1 (racemic) [AVI-4064]  criterion not met
4  CC1CCC(O)(CNc2ncnc3[nH]ccc23)CC1 (stereo not shown) [AVI-4312]      criterion met
5  C[C@H]1CC[C@H](CO)N(c2ncnc3[nH]ccc23)C1 (racemic) [AVI-4063]      criterion met

Could you verify whether the entry OCC1C=CCCN1c1ncnc2[nH]ccc12 (stereo not shown) [AVI-5998] shows Refined ligand occupancy (%) of no less than 40%? criterion not met

Could you verify whether the entry OC1(CNc2ncnc3[nH]ccc23)CCOCC1 [AVI-4314] shows Refined ligand occupancy (%) of no less than 40%? criterion not met

Could you verify whether the entry O=C(O)C(c1ccccc1)n1sc2ccccc2c1=O (stereo not shown) [AVI-288] shows Refined ligand occupancy (%) of no less than 40%? criterion met

Could you verify whether the entry CN(CC1(O)CCOCC1)c1ncnc2[nH]ccc12 [AVI-4318] shows Refined ligand occupancy (%) of no less than 40%? criterion met

Could you verify whether the entry CC(O)C1CCCN1c1ncnc2[nH]ccc12 (stereo not shown) [AVI-4062] shows Refined ligand occupancy (%) of no less than 40%? criterion met

----------
# study system: SARS-CoV-2 NSP3 macrodomain (Mac1) (Severe acute respiratory syndrome coronavirus 2)
# experiment description: biochemical
# Type: binding
# experimental context: dose-response fit
quantity kind: SARS CoV-2 macrodomain HTRF assay: Hillslope

Before answering, review these 5 worked examples.
>>> df
                                   compound  recorded_measurement
0  O[C@H]1CC[C@H]2CCN(c3ncnc4[nH]ccc34)[C@H]21                   1.2
1  OC1(CNc2ncnc3[nH]ccc23)CCCOC1 (stereo not drawn)                   1.4
2       OC1(CNc2ncnc3[nH]ccc23)CCC(F)(F)CC1                   1.2
3  OCC1C=CCCN1c1ncnc2[nH]ccc12 (stereo not drawn)                   1.2
4  OC[C@@H]1C[C@@H]2CCC[C@@H]2N1c1ncnc2[nH]ccc12                   1.2

Fill in the blank: the reported SARS CoV-2 macrodomain HTRF assay: Hillslope of Cc1c[nH]c2ncnc(NCC3(O)CCOCC3)c12 is ____. 1.3

Fill in the blank: the reported SARS CoV-2 macrodomain HTRF assay: Hillslope of OC1(CNc2ncnc3[nH]ccc23)CCOCC1 is ____. 1.2

Fill in the blank: the reported SARS CoV-2 macrodomain HTRF assay: Hillslope of OC1(CNc2ncnc3[nH]ccc23)CCCC(C(F)(F)F)C1 (stereo not drawn) is ____. 1.4

Fill in the blank: the reported SARS CoV-2 macrodomain HTRF assay: Hillslope of OCC1C2CCC(C2)N1c1ncnc2[nH]ccc12 (stereo not drawn) is ____. 1.1

Fill in the blank: the reported SARS CoV-2 macrodomain HTRF assay: Hillslope of OC1(CNc2ncnc3[nH]ccc23)CC2CCC1CC2 (stereo not drawn) is ____. 1.1

Fill in the blank: the reported SARS CoV-2 macrodomain HTRF assay: Hillslope of CC(C)(O)[C@H]1CCCN1c1ncnc2[nH]ccc12 is ____. 1.5

Fill in the blank: the reported SARS CoV-2 macrodomain HTRF assay: Hillslope of Cc1c[nH]c2ncnc(NCC3(O)CCC(C)(C)CC3)c12 is ____. 1.3

Fill in the blank: the reported SARS CoV-2 macrodomain HTRF assay: Hillslope of OC1(CNc2ncnc3[nH]ccc23)CCSCC1 is ____. 1.2

Fill in the blank: the reported SARS CoV-2 macrodomain HTRF assay: Hillslope of CC(C)(O)C1C2CCC2CN1c1ncnc2[nH]ccc12 (stereo not drawn) is ____. 1.2

Fill in the blank: the reported SARS CoV-2 macrodomain HTRF assay: Hillslope of OCC1CCC2(CCOCC2)CN1c1ncnc2[nH]ccc12 (stereo not drawn) is ____. 1.2
